Assay Details: Pharmacokinetics in mice, i.v. and oral
Type: in vivo, CD-1 mice
Condition Parameters: male, CD-1, mouse, plasma; mice, single oral dose 1 to 30 mg per kg; read-out: AUC0–24h, range
Measure Name: AUC(0-t)

> print(dat)
                         chemical.structure               obs.value
1  COc1cc(N[C@H](C(=O)c2c[nH]c3ccc(OC(F)(F)F)cc23)c2ccc(Cl)cc2OC)cc(S(C)(=O)=O)c1  1520 to 120000 ng·h/mL

###

Assay Details: MTS/PMS toxicity assay
Assay type: cell-based, African green monkey
Condition Parameters: African green monkey, Vero cells, median, read-out: CC50 MEDIAN
Measure Name: CC50

> print(dat)
                         chemical.structure  measure.name  obs.value
1  COc1cc(N[C@H](C(=O)c2c[nH]c3ccc(OC(F)(F)F)cc23)c2ccc(Cl)cc2OC)cc(S(C)(=O)=O)c1          CC50  > 2000 nM

###

Assay Details: Pharmacokinetics in monkeys, single i.v.
Condition Parameters: female, rhesus monkey, plasma, iv, 1 mg/kg
Measure Name: AUC(0-t)

> print(dat)
                         chemical.structure     obs.value
1  COc1cc(N[C@H](C(=O)c2c[nH]c3ccc(OC(F)(F)F)cc23)c2ccc(Cl)cc2OC)cc(S(C)(=O)=O)c1  6730 ng·h/mL

###

Test system: WNV R94224
Assay Details: microbe, parasite or virus in culture
Type: cell-based
Condition Parameters: West Nile virus, Vero C1008, read-out: mean EC50, range
Measure Name: EC50

> print(dat)
                         chemical.structure       obs.value
1  COc1cc(N[C@H](C(=O)c2c[nH]c3ccc(OC(F)(F)F)cc23)c2ccc(Cl)cc2OC)cc(S(C)(=O)=O)c1  0.25 to 1.1 µM

###

Test system: DENV-2 RL
Assay Details: microbe, parasite or virus in culture
Type: cell-based
Condition Parameters: A sample, passage 21; read-out: EC50 values Ave
pEC50: −log10 of the molar value.
Measure Name: pEC50

> print(dat)
                         chemical.structure  measure.name  obs.value
1  COc1cc(N[C@H](C(=O)c2c[nH]c3ccc(OC(F)(F)F)cc23)c2ccc(Cl)cc2OC)cc(S(C)(=O)=O)c1         pEC50       7.49

###

Tested on: RSV rgRSV224
Assay Details: microbe, parasite or virus in culture
Assay type: cell-based
Condition Parameters: human respiratory syncytial virus, HeLa, read-out: EC50, Mean
Measure Name: EC50

> print(dat)
                         chemical.structure  assayed.target  obs.value
1  COc1cc(N[C@H](C(=O)c2c[nH]c3ccc(OC(F)(F)F)cc23)c2ccc(Cl)cc2OC)cc(S(C)(=O)=O)c1    RSV rgRSV224    3.18 µM

###

Tested on: THP-1/DC-SIGN cells
Assay Details: ATPLite cell viability assay
Format: cell-based, human
Condition Parameters: individual data, read-out: CC50, individual data
Measure Name: CC50

> print(dat)
                                   molecule  measure.name  obs.value
1  COc1cc(N[C@H](C(=O)c2c[nH]c3ccc(OC(F)(F)F)cc23)c2ccc(Cl)cc2OC)cc(S(C)(=O)=O)c1 [JNJ-1802]          CC50   > 500 nM

###

Assay Details: Toxicity by high-content imaging
Format: cell-based, Aedes albopictus
Condition Parameters: Aedes albopictus, C6/36 cells, C3/36 cells; read-out: CC50, individual values
Measure Name: CC50 (µM)

> print(dat)
                         chemical.structure  unit.info  obs.value
1  COc1cc(N[C@H](C(=O)c2c[nH]c3ccc(OC(F)(F)F)cc23)c2ccc(Cl)cc2OC)cc(S(C)(=O)=O)c1         µM       13.7

###

Test system: NS4A-2K-NS4B precursor cleavage
Assay Details: microbe, parasite or virus in culture
Format: cell-based, DENV-2
Condition Parameters: L94F; read-out: EC50 2k-4B Input, Mean
Measure Name: EC50 (nM)

> print(dat)
                         chemical.structure  measure.name  unit.info  obs.value
1  COc1cc(N[C@H](C(=O)c2c[nH]c3ccc(OC(F)(F)F)cc23)c2ccc(Cl)cc2OC)cc(S(C)(=O)=O)c1          EC50         nM        108

###

Assay Details: Pharmacokinetics in mice, i.v. and oral
Format: in vivo, CD-1 mice
Condition Parameters: male, CD-1, plasma; mouse oral 30 mg/kg; read-out: AUC(0-24h)
Measure Name: AUC(0-t) (µg·h/mL)

> print(dat)
                         chemical.structure  obs.value
1  COc1cc(N[C@H](C(=O)c2c[nH]c3ccc(OC(F)(F)F)cc23)c2ccc(Cl)cc2OC)cc(S(C)(=O)=O)c1        120

###

Assay Details: MTS/PMS toxicity assay
Assay type: cell-based, African green monkey
Condition Parameters: African green monkey, Vero cells, EXP1-EXP3, read-out: CC50, single experiments
Measure Name: CC50 (nM)

> print(dat)
                         chemical.structure  unit.info  obs.value
1  COc1cc(N[C@H](C(=O)c2c[nH]c3ccc(OC(F)(F)F)cc23)c2ccc(Cl)cc2OC)cc(S(C)(=O)=O)c1         nM       2770

###

Test system: DENV-2 RL
Assay Details: microbe, parasite or virus in culture
Type: cell-based
Condition Parameters: Dengue virus, DENV2, Vero, read-out: EC50 values Ave, A sample, passage 39
Measure Name: EC50 (nM)

> print(dat)
                         chemical.structure  measure.name  obs.value
1  COc1cc(N[C@H](C(=O)c2c[nH]c3ccc(OC(F)(F)F)cc23)c2ccc(Cl)cc2OC)cc(S(C)(=O)=O)c1          EC50       1290

###

Assay Details: ATPLite cell viability assay
Type: cell-based, human
Condition Parameters: human, THP-1/DC-SIGN cells
Measure Name: CC50

> print(dat)
                         chemical.structure  obs.value
1  COc1cc(N[C@H](C(=O)c2c[nH]c3ccc(OC(F)(F)F)cc23)c2ccc(Cl)cc2OC)cc(S(C)(=O)=O)c1   > 500 nM

###

Assay Details: Pharmacokinetics in mice, i.v. and oral
Format: in vivo, CD-1 mice
Condition Parameters: male, CD-1, plasma; mouse oral 10 mg/kg; read-out: AUC(0-24h)
Measure Name: AUC(0-t) (ng·h/mL)

> print(dat)
                                   compound  measure.name  obs.value
1  COc1cc(N[C@H](C(=O)c2c[nH]c3ccc(OC(F)(F)F)cc23)c2ccc(Cl)cc2OC)cc(S(C)(=O)=O)c1 [JNJ-1802]      AUC(0-t)      35600

###

Tested on: Vero cells
Assay Details: ATPLite cell viability assay
Format: cell-based, African green monkey
Condition Parameters: Vero cells in presence of 50% HS, individual experiments; listed as 64281802-AAA
Description: In parallel, the toxicity was measured using an ATPLite cell viability luminescence assay (PerkinElmer). The assays were performed in three different cell types (Vero, Huh-7 and THP-1/DC-SIGN) as described in ref. [3] to exclude cell-specific activity of the compound.
Measure Name: CC50

> print(dat)
                                   molecule  assayed.target  obs.value
1  COc1cc(N[C@H](C(=O)c2c[nH]c3ccc(OC(F)(F)F)cc23)c2ccc(Cl)cc2OC)cc(S(C)(=O)=O)c1 [JNJ-1802]      Vero cells  > 2500 nM

###

Test system: DENV-3 G1 Malaysia
Assay Details: DENV genotype panel RT-qPCR, Vero E6
Format: cell-based
Condition Parameters: Dengue virus, DENV3, Vero C1008
Measure Name: EC50 (nM)

> print(dat)
                         chemical.structure  measure.name  obs.value
1  COc1cc(N[C@H](C(=O)c2c[nH]c3ccc(OC(F)(F)F)cc23)c2ccc(Cl)cc2OC)cc(S(C)(=O)=O)c1          EC50       1.28

###

Tested on: DENV-2 Asian America Martinique
Type: cell-based
Condition Parameters: T108I in NS4B
Measure Name: EC50 (nM)

> print(dat)
                                   compound                   assayed.target  measure.name  obs.value
1  COc1cc(N[C@H](C(=O)c2c[nH]c3ccc(OC(F)(F)F)cc23)c2ccc(Cl)cc2OC)cc(S(C)(=O)=O)c1 [JNJ-1802]  DENV-2 Asian America Martinique          EC50        0.8
